molecular target: PI3K (Homo sapiens, UniProt P42336); test: Fluorescence polarization assay for PI3K; type: biochemical; details: PI3Kα; read-out: PI3Kα IC50;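 also: PI3K kinase reaction on PIP2 with ATP, 30-60 min, product sensed by GST-GRP with red probe in fluorescence polarization (mP), controls without enzyme and at zero time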
Sequence (P42336 whole entry): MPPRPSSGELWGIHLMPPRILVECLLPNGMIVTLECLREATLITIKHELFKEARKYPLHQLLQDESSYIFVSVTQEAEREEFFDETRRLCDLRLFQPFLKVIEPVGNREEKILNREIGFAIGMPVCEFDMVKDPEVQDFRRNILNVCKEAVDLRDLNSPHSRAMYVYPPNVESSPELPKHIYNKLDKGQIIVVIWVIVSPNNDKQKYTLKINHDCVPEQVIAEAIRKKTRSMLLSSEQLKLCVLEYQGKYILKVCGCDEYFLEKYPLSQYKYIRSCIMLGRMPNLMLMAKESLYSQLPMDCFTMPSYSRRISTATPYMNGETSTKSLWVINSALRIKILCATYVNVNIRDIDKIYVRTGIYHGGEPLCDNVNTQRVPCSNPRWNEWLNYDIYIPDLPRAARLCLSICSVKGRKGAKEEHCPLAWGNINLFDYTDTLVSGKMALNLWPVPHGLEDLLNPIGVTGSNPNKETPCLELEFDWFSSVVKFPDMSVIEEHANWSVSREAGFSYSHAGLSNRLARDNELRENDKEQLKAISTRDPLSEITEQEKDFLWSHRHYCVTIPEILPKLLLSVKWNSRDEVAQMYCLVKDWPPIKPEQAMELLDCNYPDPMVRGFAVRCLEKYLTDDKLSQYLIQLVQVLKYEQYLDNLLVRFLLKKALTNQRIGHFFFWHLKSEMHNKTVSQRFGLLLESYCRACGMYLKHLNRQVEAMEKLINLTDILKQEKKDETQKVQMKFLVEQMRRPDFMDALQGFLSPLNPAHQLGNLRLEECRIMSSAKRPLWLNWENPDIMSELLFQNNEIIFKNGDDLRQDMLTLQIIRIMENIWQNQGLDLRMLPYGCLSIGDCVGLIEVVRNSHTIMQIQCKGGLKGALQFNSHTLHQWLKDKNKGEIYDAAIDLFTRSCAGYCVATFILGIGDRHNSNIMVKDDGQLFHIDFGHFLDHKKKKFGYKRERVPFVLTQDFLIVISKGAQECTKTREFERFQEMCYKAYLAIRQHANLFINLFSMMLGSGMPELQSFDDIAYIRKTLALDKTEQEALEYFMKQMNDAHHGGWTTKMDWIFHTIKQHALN
Sequence (P27986 whole entry partner): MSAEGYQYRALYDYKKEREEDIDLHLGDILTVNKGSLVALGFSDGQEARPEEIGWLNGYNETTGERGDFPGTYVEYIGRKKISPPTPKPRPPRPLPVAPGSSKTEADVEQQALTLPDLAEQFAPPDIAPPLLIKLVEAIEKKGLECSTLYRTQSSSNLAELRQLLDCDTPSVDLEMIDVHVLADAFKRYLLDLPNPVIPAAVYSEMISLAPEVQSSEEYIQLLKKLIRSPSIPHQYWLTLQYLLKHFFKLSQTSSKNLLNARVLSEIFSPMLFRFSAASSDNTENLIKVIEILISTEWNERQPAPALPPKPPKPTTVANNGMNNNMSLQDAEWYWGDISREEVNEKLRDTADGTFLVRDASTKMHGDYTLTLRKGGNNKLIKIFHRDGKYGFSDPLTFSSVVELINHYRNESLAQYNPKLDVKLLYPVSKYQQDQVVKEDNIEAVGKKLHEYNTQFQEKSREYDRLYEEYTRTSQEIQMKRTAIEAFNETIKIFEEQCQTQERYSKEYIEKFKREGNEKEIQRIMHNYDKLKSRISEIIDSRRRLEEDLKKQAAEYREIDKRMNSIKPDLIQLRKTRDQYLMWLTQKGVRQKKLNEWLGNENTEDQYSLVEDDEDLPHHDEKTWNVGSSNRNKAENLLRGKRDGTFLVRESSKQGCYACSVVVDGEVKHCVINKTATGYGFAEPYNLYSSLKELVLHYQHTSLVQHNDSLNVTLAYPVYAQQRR
Exercise: for every item that follows, state its recorded pIC50.
Scale for pIC50: -log10 of concentration given in mol/L; no unit attached.

pIC50 for PI3K (Homo sapiens, UniProt P42336) with input CN(C)CCC(=O)Nc1ccc(-c2nc(N3CCOCC3)c3cnn(-c4ccccc4)c3n2)cc1 [Compound 133] equals 6.65

# pIC50 measured on PI3K (Homo sapiens, UniProt P42336) for item CCOC(=O)CN1CCC(n2ncc3c(N4CCOCC4)nc(-c4ccc(NC(=O)NC)cc4)nc32)CC1 [Compound 795] = 6.80

Here CN(C)c1ccc(CC(=O)Nc2ccc(-c3nc(N4CCOCC4)c4cnn(C5CCCCO5)c4n3)cc2)cc1 (stereo not drawn) [Compound 276] was tested on PI3K (Homo sapiens, UniProt P42336), and its pIC50 came to 5.19

Record O=C(Nc1ccc(-c2nc(N3CCOCC3)c3cnn(C4CCN(CC(F)(F)F)CC4)c3n2)cc1)OCCO [Compound 923] / PI3K (Homo sapiens, UniProt P42336), pIC50 recorded as 6.13

CNC(=O)Nc1ccc(-c2nc(N3CCOCC3)c3cnn(C4CCN(C(=O)c5ccc(Cl)nc5)CC4)c3n2)cc1 [Compound 668] tested on PI3K (Homo sapiens, UniProt P42336) gave pIC50: 7.08

Entry C=CC(=O)N1CCC(n2ncc3c(N4CCOCC4)nc(-c4ccc(NC(=O)OC)cc4)nc32)CC1 [Compound 458] ; assay system PI3K (Homo sapiens, UniProt P42336); pIC50 recorded at 5.70

pIC50 on PI3K (Homo sapiens, UniProt P42336) for O=C(Nc1ccc(-c2nc(N3CCOCC3)c3cnn(C4CCN(C(=O)c5cccnc5)CC4)c3n2)cc1)NC1CC1 [Compound 659] is 6.45

Measured on PI3K (Homo sapiens, UniProt P42336), O=C1COCCN1c1nc(-c2cccc(O)c2)nc2c1cnn2-c1ccccc1 [Compound 727] has a documented pIC50 of 4.96

Response field pIC50 (PI3K (Homo sapiens, UniProt P42336)) for item Nc1ccnc(-c2nc(N3CCOCC3)c3cnn(-c4ccccc4)c3n2)c1 [Compound 681] : 5.84

pIC50 on PI3K (Homo sapiens, UniProt P42336) for O=C(c1cccnc1Cl)N1CCC(n2ncc3c(N4CCOCC4)nc(-c4ccc5[nH]ccc5c4)nc32)CC1 [Example 195] is 5.77

pIC50 for PI3K (Homo sapiens, UniProt P42336) with input c1cc2cc(-c3nc(N4CCOCC4)c4cnn(C5CCCCO5)c4n3)ccc2[nH]1 (stereo not drawn) [Compound 237] equals 5.62

The value of pIC50 recorded for CCOC(=O)N1CCC(n2ncc3c(N4CCOC[C@H]4C)nc(-c4ccc(NC(=O)Nc5ccncc5)cc4)nc32)CC1 [Compound 893] when tested on PI3K (Homo sapiens, UniProt P42336) reads 6.29

The reported PI3K (Homo sapiens, UniProt P42336) pIC50 of CCOC(=O)N1CCC(n2ncc3c(N4CCOC[C@@H]4C)nc(-c4ccc(NC(=O)NCCF)cc4)nc32)CC1 [Compound 895] is 6.28

Simply: COCC(=O)N1CCC(n2ncc3c(N4CCOCC4)nc(-c4ccc5[nH]ccc5c4)nc32)CC1 [Example 40] , PI3K (Homo sapiens, UniProt P42336), pIC50 = 5.43

Here COC(=O)Nc1ccc(-c2nc(N3CCOCC3)c3cnn(C4CCN(C(=O)c5cnccc5C)CC4)c3n2)cc1 [Example 440] was tested on PI3K (Homo sapiens, UniProt P42336), and its pIC50 came to 5.60

* * *

system: breast line MDA468; experiment: In vitro cell culture growth assay (MTS), MDA468; assay type: cell-based, human; details: Homo sapiens, 72 h, MDA468 cells, three days after drug treatment
Measured attribute: IC50

Readout IC50 for Oc1ccc(-c2nc(N3CCOCC3)c3cnn(C4CCN(Cc5ccccc5)CC4)c3n2)cc1 [Compound 486] , test system breast line MDA468, was 4000 nM

Bench note, breast line MDA468: entry CN1CCC(NC(=O)Nc2ccc(-c3nc(N4CCOCC4)c4cnn(C5CCN(Cc6ccccc6)CC5)c4n3)cc2)CC1 [Compound 272] , its IC50 = 1200 nM

IC50 on breast line MDA468 for c1ccc(-n2ncc3c(N4CCOCC4)nc(-c4cc5ccccc5s4)nc32)cc1 is 23000 nM

Measured on breast line MDA468, CNC(=O)Nc1ccc(-c2nc(N3CCOCC3)c3cnn(C4CCN(Cc5ccc(OC)nc5)CC4)c3n2)cc1 [Compound 574] has a documented IC50 of 700 nM

For the compound O=C(Nc1cccnc1)Nc1ccc(-c2nc(N3CCOCC3)c3cnn(C4CCN(Cc5cccnc5)CC4)c3n2)cc1F [Example 373] , the measured IC50 on breast line MDA468 was 200 nM

Record Nc1ccc(-c2nc(N3CCOCC3)c3cnn(C4CCN(Cc5ccccc5)CC4)c3n2)cc1[N+](=O)[O-] has breast line MDA468 IC50 equal to 13000 nM

Lab note: compound CN(C)CCCNC(=O)Nc1ccc(-c2nc(N3CCOCC3)c3cnn(C4CCN(Cc5ccccc5)CC4)c3n2)cc1 [Compound 516] tested on breast line MDA468; recorded IC50 was 2000 nM

* * *

system: breast line MDA468; experiment: In vitro cell culture growth assay (MTS), MDA468; format: cell-based, human; settings: Homo sapiens, 72 h, MDA468 cells, three days after drug treatment
Measured attribute: IC50 (µM)
Write the number in µM without appending the unit.

// IC50 (breast line MDA468) for O=C(Nc1ccccc1)Nc1ccc(-c2nc(N3CCOCC3)c3cnn(C4CCN(Cc5ccccc5)CC4)c3n2)cc1 [Compound 503] = 1.05

Measured IC50 (breast line MDA468), entry CNC(=O)Nc1ccc(-c2nc(N3CCOCC3)c3cnn(C4CCN(Cc5cccc(C)c5)CC4)c3n2)cc1 : 0.2

With breast line MDA468 as the test system, O=C(NCCO)Nc1ccc(-c2nc(N3CCOCC3)c3cnn(CC(F)(F)F)c3n2)cc1 showed IC50 of 0.26

Readout IC50 for O=C(Nc1ccc(-c2nc(N3CCOCC3)c3cnn(C4CCN(C(=O)c5cccnc5)CC4)c3n2)cc1)NC1CC1 , test system breast line MDA468, was 0.7

Reported breast line MDA468 IC50 for item CCNC(=O)Nc1ccc(-c2nc(N3CCOC(C)C3)c3cnn(C4CCN(C(=O)OC)CC4)c3n2)cc1 (centres unmarked) was 1

Bench note, breast line MDA468: CNC(=S)Nc1ccc(-c2nc(N3CCOCC3)c3cnn(C4CCN(C(=O)OC)CC4)c3n2)cc1 , IC50 reads 0.22

Short answer on breast line MDA468 for O=C(Nc1ccc(-c2nc(N3CCOCC3)c3cnn(C4CCN(CC(F)(F)F)CC4)c3n2)cc1)OCCO , IC50: 1.2

Record CN(C)CCNC(=O)c1ccc(-c2nc(N3CCOCC3)c3cnn(-c4ccccc4)c3n2)cc1 ; system breast line MDA468; IC50 = 5

Lab entry: breast line MDA468 assay, compound CN(C)CCNC(=O)c1cccc(-c2nc(N3CCOCC3)c3cnn(-c4ccccc4)c3n2)c1 , IC50 = 3.3

Measured IC50 (breast line MDA468), entry CC(C)C(=O)N1CCC(n2ncc3c(N4CCOCC4)nc(-c4ccc(NC(=O)Nc5ccccc5)cc4)nc32)CC1 : 0.11

breast line MDA468 IC50 of O=C(NCC(F)(F)F)Nc1ccc(-c2nc(N3CCOCC3)c3cnn(C4CCN(Cc5ccccc5)CC4)c3n2)cc1 [Example 289] is 1.3

Let me check: COC(=O)N1CCC(n2ncc3c(N4CCOCC4)nc(-c4ccc(N/C(=N/C#N)Oc5ccccc5)cc4)nc32)CC1 , system breast line MDA468, measured IC50 is 25

Simply: CNC(=O)Nc1ccc(-c2nc(N3CCOCC3)c3cnn(C4CCN(CC5OCCO5)CC4)c3n2)cc1 , breast line MDA468, IC50 = 0.3

Query COCCCNC(=O)Nc1ccc(-c2nc(N3CCOCC3)c3cnn(C4CCN(Cc5ccccc5)CC4)c3n2)cc1 [Compound 515] on breast line MDA468; IC50 returned: 3.2

The reported IC50 value, breast line MDA468, for COC(=O)Nc1ccc(-c2nc(N3CCOCC3)c3cnn(C4CCN(C(=O)c5ccccc5OC)CC4)c3n2)cc1 reads 0.9

Noted IC50 for CNCC(=O)N1CCC(n2ncc3c(N4CCOCC4)nc(-c4ccc5[nH]ccc5c4)nc32)CC1 , tested on breast line MDA468: 2.8

Reported IC50 (breast line MDA468) for entry CC(C)(C)C(=O)Nc1ccc(-c2nc(N3CCOCC3)c3cnn(C4CCN(Cc5ccccc5)CC4)c3n2)cc1 is 40

Param item: COC(=O)N1CCC(n2ncc3c(N4CCOCC4)nc(-c4ccc(NC(=O)NC5CC5)cc4)nc32)CC1 ; param system: breast line MDA468; output IC50: 0.15

IC50 of CC(c1ccccc1)N1CCC(n2ncc3c(N4CCOCC4)nc(-c4ccc5[nH]ccc5c4)nc32)CC1 (centres unmarked) [Compound 240] , assay on breast line MDA468, is 3.5

I looked up O=C(Nc1ccc(-c2nc(N3CCOCC3)c3cn[nH]c3n2)cc1)c1cccnc1 [Compound 278] and its IC50 for breast line MDA468 was 60

Result for C#CCNC(=O)Nc1ccc(-c2nc(N3CCOCC3)c3cnn(C4CCN(Cc5ccccc5)CC4)c3n2)cc1 [Compound 312] , tested on breast line MDA468, IC50: 3.9

Given the compound CCNC(=O)Nc1ccc(-c2nc(N3CCOCC3)c3cnn(C4CCN(C(=O)C(C)C)CC4)c3n2)cc1 and test system breast line MDA468, the measured IC50 is 0.5

Sample CCNC(=O)Nc1ccc(-c2nc(N3CCOCC3)c3cnn(C4CCN(C(=O)c5cccnc5)CC4)c3n2)cc1 [Compound 552] , system: breast line MDA468. Its IC50 is 0.18

Field IC50 (breast line MDA468), entry CN(C)NC(=O)Nc1ccc(-c2nc(N3CCOCC3)c3cnn(C4CCN(Cc5ccccc5)CC4)c3n2)cc1 [Compound 536] : 8

Lab note: compound COc1ccc(C(=O)N2CCC(n3ncc4c(N5CCOCC5)nc(-c5cccc(O)c5)nc43)CC2)cc1 tested on breast line MDA468; recorded IC50 was 1.1

Measured IC50 (breast line MDA468), entry O=C(NCCF)Nc1ccc(-c2nc(N3CCOCC3)c3cnn(C4CCN(C(=O)c5ccccc5)CC4)c3n2)cc1 : 0.027

Sample CN(C)C(=O)N1CCC(n2ncc3c(N4CCOCC4)nc(-c4ccc5[nH]ccc5c4)nc32)CC1 , system: breast line MDA468. Its IC50 is 2.1

These data points were gathered from patent US20080234262A1.
